assay remarks: chemical genetic growth profiling, strain panel (AID 1159580);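 also: tested at 20 µM; growth read once vehicle control cultures reached saturation at 30 °C; 1 = growth at the plate median or of vehicle wells; lower values mean less growth of the strain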
condition: S. cerevisiae deletion strains, growth OD, locus YBL061C, strain skt5, hits give low values
The whole screen tested about 5,500 compounds, of which about 2,000 (36%) were called active. About 18% were inconclusive and are not listed. The list shows a part of the results.
Below, each of the compounds is paired with its reported normalized growth value.
readout: normalized growth

# compound, measured
data = [
    ("CCC(C)C(=O)O[C@@H]1C[C@@]2(C)[C@H](c3ccoc3)OC(=O)CC23OC2(C)O[C@]14[C@]1(C)[C@@H](CC(=O)OC)C5(C)CC1(O)[C@](O)(C5OC(=O)C1(C)OC1C)[C@@H](OC(C)=O)[C@]34O2 (stereo partly specified)", 1),
    ("COC(=O)C[C@H]1C2(C)CC34OC5(C)O[C@@]6([C@H](OC(C)=O)C(OC(C)=O)[C@]7(C)C(/C(=C(/O)C(C)C)C(=O)O[C@H]7c7ccoc7)[C@@]6(O5)[C@H](OC(C)=O)[C@@]3(O)C2OC(=O)C(C)C)[C@]14C (stereo partly specified)", 1.01),
    ("COC(=O)C[C@H]1C2(C)CC34OC5(C)O[C@@]6([C@H](OC)C(OC(=O)C(C)C)[C@]7(C)C(/C(=C(/OC)C(C)C)C(=O)O[C@H]7c7ccoc7)[C@@]6(O5)[C@H](OC)[C@@]3(OC)C2OC(C)=O)[C@]14C (stereo partly specified)", 0.962),
    ("CCC(C)C(=O)O[C@@H]1C[C@@]2(C)[C@H](c3ccoc3)OC(=O)CC23OC2(C)OC34[C@H](OC(=O)C(C)C)[C@@]3(O)[C@@H](OC(=O)C5(C)OC5C)[C@@]5(C)C[C@]3(O)[C@@](C)([C@H]5CC(=O)OC)C14O2 (stereo partly specified)", 1),
    ("CNC(=O)O/N=C(\\C)SC", 1),
    ("O=C1CCC(N2C(=O)c3ccccc3C2=O)C(=O)N1 (stereo unspecified)", 1.02),
]

----------
normalized growth listing for selected compounds.
assay remarks: chemical genetic growth profiling, strain panel (AID 1159580);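 also: tested at 20 µM; growth read once vehicle control cultures reached saturation at 30 °C; 1 = growth at the plate median or of vehicle wells; lower values mean less growth of the strain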
condition: S. cerevisiae deletion strains, growth OD, locus YLR027C, strain aat2, hits give low values
Among all 5,500 compounds or so, about 2,000 (36%) were called active. Not shown: some 18% with an inconclusive outcome. The list shows a part of the results.
readout: normalized growth

# compound, measured
records = [
    ("O=C(O)/C=C/c1ccc(O)c(O)c1", 0.989),
    ("Oc1cc(O)c2c(c1)O[C@H](c1ccc(O)c(O)c1)[C@H](O)C2", 0.996),
    ("COC(=O)C1=COC(OC2OC(CO)C(O)C(O)C2O)C2C(C)CC(=O)C12 (configuration not stated)", 1.02),
    ("O=C(/C=C/c1ccc(O)c(O)c1)OCCc1ccccc1", 0.774),
    ("Cc1[nH]c2ccccc2c1CN(C)C", 1.01),
    ("COc1ccc([C@H]2Oc3c(I)c(OC)cc(OC)c3C[C@@H]2O)cc1OC", 1.01),
    ("COc1cc(CNC(=O)CCCC/C=C/C(C)C)ccc1O", 0.975),
    ("O=C(/C=C/c1ccc(O)c(O)c1)OC(Cc1ccc(O)c(O)c1)C(=O)O (configuration not stated)", 1.04),
    ("Oc1cc(O)c2c(c1)O[C@H](c1ccc(O)c(O)c1)[C@@H](O)C2", 1.02),
    ("O=S(=O)(O)CCS", 0.997),
    ("CCCCCCCCC(=O)NCc1ccc(O)c(OC)c1", 1.01),
    ("Nc1ncn[nH]1", 1.01),
]
